MEASURED QUANTITY: melting point

INSERT INTO assay_data (compound, measured_quantity, experimental_value) VALUES
  ('COc1ccc(NC(=O)CC[C@H](NS(=O)(=O)c2ccc(-c3ccccc3)cc2)C(=O)O)cc1', 'melting point', '219 to 221 °C'),
  ('CN(C)c1ccc(-c2ccc(S(=O)(=O)N[C@H](Cc3c[nH]c4ccccc34)C(=O)O)cc2)cc1', 'melting point', '258 to 260 °C'),
  ('CN(CC(=O)O)S(=O)(=O)c1ccc(Oc2ccc(Cl)cc2)cc1', 'melting point', '128 to 130 °C'),
  ('CNC(=O)c1ccc(NC(=O)CC[C@H](NS(=O)(=O)c2ccc(-c3ccccc3)cc2)C(=O)O)cc1', 'melting point', '250 to 250.5 °C'),
  ('CN(C)c1ccc(-c2ccc(S(=O)(=O)N[C@@H](CCC(=O)Nc3ccccc3)C(=O)O)cc2)cc1', 'melting point', '240.5 to 241.5 °C (dec.)'),
  ('CC(C)C[C@H](NC(=O)CC[C@H](NS(=O)(=O)c1ccc(-c2ccccc2)cc1)C(=O)O)C(=O)O', 'melting point', '93 to 95 °C'),
  ('C[C@H](O)[C@H](NS(=O)(=O)c1ccc(Oc2ccccc2)cc1)C(=O)O', 'melting point', '96 to 98 °C'),
  ('O=C(CC[C@H](NS(=O)(=O)c1ccc(-c2ccccc2)cc1)C(=O)O)Nc1ccc(F)c(Cl)c1', 'melting point', '> 245 °C (dec.)'),
  ('NC(=O)CC[C@H](NC(=O)CC[C@H](NS(=O)(=O)c1ccc(-c2ccccc2)cc1)C(=O)O)C(=O)O', 'melting point', '> 110 °C (dec.)'),
  ('N#Cc1ccc(NC(=O)CC[C@H](NS(=O)(=O)c2ccc(-c3ccccc3)cc2)C(=O)O)cc1', 'melting point', '220 °C'),
  ('CSCC[C@H](NC(=O)CC[C@H](NS(=O)(=O)c1ccc(-c2ccccc2)cc1)C(=O)O)C(=O)O', 'melting point', '159 to 161 °C'),
  ('O=C(O)[C@H](Cc1cn(S(=O)(=O)c2ccc(Oc3ccccc3)cc2)cn1)NS(=O)(=O)c1ccc(Oc2ccccc2)cc1', 'melting point', '120 to 122 °C'),
  ('O=C(O)[C@@H]1CN1S(=O)(=O)c1ccc(-c2ccccc2)cc1 (stereo partly shown)', 'melting point', '138 to 139 °C'),
  ('CSCC[C@@H](NS(=O)(=O)c1ccc(-c2ccccn2)s1)C(=O)O', 'melting point', '115 to 125 °C'),
  ('O=C(O)[C@@H](Cc1c[nH]c2ccccc12)NS(=O)(=O)c1ccc(-n2nccn2)cc1', 'melting point', '131 to 134 °C'),
  ('O=C(CCC(NS(=O)(=O)c1ccc(-c2ccccc2)cc1)C(=O)O)Nc1ccccc1 (racemic)', 'melting point', '227 to 230 °C');
